- study_system: UniProt:P11229
- experiment_description: Alphascreen Surefire phospho-ERK1/2 functional assay, M1
- Assay type: cell-based
- assay_context: CHO, read-out: % Emax cf. ACh, M1, CHO cells stably expressing human M1; relative to ACh
Rule for this label: Y means Emax is less than 70%; N means Emax is at least 70%.

>>> class_label("CCOC(=O)N1CCC2(CC(N3CCC(c4ccnc(N)n4)CC3)C2)C1 (single isomer, unassigned) [3-8 Isomer 2]")
"Y"
>>> class_label("CCOC(=O)N1CCC2(CC(N3CCC(c4c(C)cnn4C)CC3)C2)C1 (single isomer, unassigned) [1-58 Isomer 2]")
"Y"
>>> class_label("CCOC(=O)N1CCC2(CC(N3CCC(c4nnn(CC)n4)CC3)C2)C1 (single isomer, unassigned) [1-66 Isomer 2]")
"Y"
>>> class_label("CCOC(=O)N1CCC2(CC(N3CCC(N4CCC[C@@H]4CF)CC3)C2)C1 (single isomer, unassigned) [2-102 Isomer 2]")
"Y"
>>> class_label("CCOC(=O)N1CCC2(CC(N3CCC(N4CCCOC4=O)CC3)C2)C1 (single isomer, unassigned) [4-7 Isomer 2]")
"N"
>>> class_label("CCOC(=O)N1CCC2(CC(N3CCC(n4cnnn4)CC3)C2)C1 (single isomer, unassigned) [1-62 Isomer 2]")
"N"
>>> class_label("CCOC(=O)N1CCC2(CC(N3CCC(c4nccn4CC#N)CC3)C2)C1 (single isomer, unassigned) [1-52 Isomer 2]")
"N"

----------
- study_system: human muscarinic M1 receptor (Homo sapiens, UniProt P11229)
- Sequence (P11229 1-460): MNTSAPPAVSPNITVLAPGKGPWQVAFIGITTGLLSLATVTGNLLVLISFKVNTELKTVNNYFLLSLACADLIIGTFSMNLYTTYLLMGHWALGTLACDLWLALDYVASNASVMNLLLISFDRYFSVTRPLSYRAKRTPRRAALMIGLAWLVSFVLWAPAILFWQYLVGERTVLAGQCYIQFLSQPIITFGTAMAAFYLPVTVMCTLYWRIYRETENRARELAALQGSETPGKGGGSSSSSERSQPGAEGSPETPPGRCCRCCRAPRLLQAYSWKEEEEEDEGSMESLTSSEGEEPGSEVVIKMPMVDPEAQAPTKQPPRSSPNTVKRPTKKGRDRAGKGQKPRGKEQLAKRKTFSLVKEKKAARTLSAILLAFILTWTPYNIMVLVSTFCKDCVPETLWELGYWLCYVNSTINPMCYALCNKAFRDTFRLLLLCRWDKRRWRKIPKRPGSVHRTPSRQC
- experiment_description: Alphascreen Surefire phospho-ERK1/2 functional assay, M1
- Format: cell-based
- assay_context: CHO cells stably expressing human M1; phospho-ERK1/2; * = variable results; read-out: pEC50 M1 (converted)
Entries and their EC50
quantity: EC50 (nM)

>>> value_measured("CCOC(=O)N1CCC2(CC(N3CCC(n4ccnn4)CC3)C2)C1 (single isomer, unassigned) [1-35 Isomer 2]")
398
>>> value_measured("CCOC(=O)N1CCC2(CC(N3CCC([C@@H]4CCCN4C(=O)NC)CC3)C2)C1 (single isomer, unassigned) [2-17 Isomer 2]")
200
>>> value_measured("CCOC(=O)N1CCC2(CC(N3CCC(C4c5ccccc5CN4C(=O)NC)CC3)C2)C1 (single isomer, unassigned) [2-76 Isomer 2]")
50.1
>>> value_measured("CCOC(=O)N1CCC2(CC(N3CCC(C4c5ccccc5CN4C(=O)NC)CC3)C2)C1 (single isomer, unassigned) [2-76 Isomer 1]")
126
>>> value_measured("CCOC(=O)N1CCC2(CC(N3CCC(n4cncn4)CC3)C2)C1 (single isomer, unassigned) [1-36 Isomer 2]")
5010
